Molecular target: BSA (Bos taurus, UniProt P02769)
Sequence (P02769 25-607): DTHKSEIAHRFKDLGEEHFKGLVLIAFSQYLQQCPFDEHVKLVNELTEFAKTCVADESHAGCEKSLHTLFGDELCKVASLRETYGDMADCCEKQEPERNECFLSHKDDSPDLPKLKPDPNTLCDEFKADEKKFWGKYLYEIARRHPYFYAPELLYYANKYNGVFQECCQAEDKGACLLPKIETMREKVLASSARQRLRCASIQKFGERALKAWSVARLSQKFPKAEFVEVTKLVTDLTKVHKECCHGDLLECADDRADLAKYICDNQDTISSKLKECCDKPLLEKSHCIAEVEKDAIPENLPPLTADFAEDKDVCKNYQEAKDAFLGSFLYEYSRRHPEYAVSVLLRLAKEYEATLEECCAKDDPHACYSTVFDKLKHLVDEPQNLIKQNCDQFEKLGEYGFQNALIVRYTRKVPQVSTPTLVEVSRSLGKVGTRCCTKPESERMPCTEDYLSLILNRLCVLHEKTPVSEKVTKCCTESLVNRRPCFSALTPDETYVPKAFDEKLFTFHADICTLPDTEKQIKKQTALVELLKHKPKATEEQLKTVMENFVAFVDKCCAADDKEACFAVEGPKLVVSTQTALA
Assay: Absorbance/emission spectra, fluorescence enhancement and quantum yield of dyes in solution +/- BSA (Example 21)
Assay type: physicochemical, bovine
Conditions: 150 μg/mL BSA, 0.05% SDS, at emission maxima, 470 nm excitation

{"columns": ["smiles_structure", "FE (fluorescence enhancement, BSA) / fold"],
 "data": [
  ["CCn1c2ccccc2c2cc(/C=C/c3ccc4cc(OC)ccc4[n+]3C)ccc21", 2.5],
  ["CCn1c2ccccc2c2cc(/C=C/C3=[N+](CCCCCC(=O)O)c4ccc(S(=O)(=O)[O-])cc4C3(C)C)ccc21", 3.0],
  ["CCn1c2ccccc2c2cc(/C=C/c3cc[n+](CCCCS(=O)(=O)[O-])c4ccccc34)ccc21", 92],
  ["CCCCc1cc(/C=C/c2ccc3c(c2)c2ccccc2n3CC)c2ccccc2[n+]1-c1ccccc1.[Cl-]", 25],
  ["CCn1c2ccccc2c2cc(/C=C/c3cc[n+](CCCS(=O)(=O)[O-])cc3)ccc21", 15],
  ["O=S(=O)([O-])CCCC[n+]1ccc(/C=C/c2ccc3c(c2)c2ccccc2n3-c2ccccc2)c2ccccc21", 52],
  ["CCn1c2ccccc2c2cc(/C=C/c3ccc4ccccc4[n+]3CCCCS(=O)(=O)[O-])ccc21", 34],
  ["CCn1c2ccccc2c2cc(/C=C/c3cc[n+](CCCC(=O)O)c4ccccc34)ccc21.[Cl-]", 104],
  ["CCn1c2ccccc2c2cc(/C=C/c3sc4ccccc4[n+]3CCCS(=O)(=O)[O-])ccc21", 15],
  ["CCOCC(=O)CCC[n+]1ccc(/C=C/c2ccc3c(c2)c2ccccc2n3CC)c2ccccc21.[Br-]", 110]
]}

====

Overview of recorded ABS λ max, unbound for various compounds
Target: UniProt P02769
Assay: Absorbance/emission spectra, fluorescence enhancement and quantum yield of dyes in solution +/- BSA (Example 21)
Format: physicochemical, bovine
Conditions: dye without BSA, 10 mM Tris-HCl, pH 7.5, 0.05% SDS
Text: A particular dye of this invention is generally selected for a particular assay using one or more of the following criteria: sensitivity to poly(amino acids), insensitivity to the presence of nucleic acids, dynamic range, photostability, staining time, and spectral properties. […] Although the fluorescence enhancements and quantum yields are low to moderate in solution, some are significant relative to the long wavelength emission maxima (see Table 1 and Example 21). […]
assay_readout: ABS λ max, unbound (nm)

{"columns": ["smiles_structure", "assay_value"],
 "data": [
  ["CCn1c2ccccc2c2cc(/C=C/c3cc[n+](CCCCS(=O)(=O)[O-])c4ccccc34)ccc21", 479],
  ["CCn1c2ccccc2c2cc(/C=C/c3sc4ccccc4[n+]3CCCS(=O)(=O)[O-])ccc21", 448],
  ["CCCCc1cc(/C=C/c2ccc3c(c2)c2ccccc2n3CC)c2ccccc2[n+]1-c1ccccc1.[Cl-]", 480],
  ["CCn1c2ccccc2c2cc(/C=C/c3cc[n+](CCCC(=O)O)c4ccccc34)ccc21.[Cl-]", 475]
]}

====

Molecular target: BSA (Bos taurus, UniProt P02769)
Experiment: Absorbance/emission spectra, fluorescence enhancement and quantum yield of dyes in solution +/- BSA (Example 21)
Format: physicochemical, bovine
Conditions: dye without BSA, 10 mM Tris-HCl, pH 7.5, 0.05% SDS

{"columns": ["molecule", "EM λ max, unbound (nm)"],
 "data": [
  ["O=S(=O)([O-])CCCC[n+]1ccc(/C=C/c2ccc3c(c2)c2ccccc2n3-c2ccccc2)c2ccccc21 [Compound 15]", 670],
  ["CCCCc1cc(/C=C/c2ccc3c(c2)c2ccccc2n3CC)c2ccccc2[n+]1-c1ccccc1.[Cl-] [Compound 16]", 676],
  ["CCn1c2ccccc2c2cc(/C=C/c3sc4ccccc4[n+]3CCCS(=O)(=O)[O-])ccc21 [Compound 14]", 638],
  ["CCn1c2ccccc2c2cc(/C=C/C3=[N+](CCCCCC(=O)O)c4ccc(S(=O)(=O)[O-])cc4C3(C)C)ccc21 [Compound 18]", 611],
  ["CCn1c2ccccc2c2cc(/C=C/c3cc[n+](CCCS(=O)(=O)[O-])cc3)ccc21 [Compound 13]", 588],
  ["CCn1c2ccccc2c2cc(/C=C/c3ccc4ccccc4[n+]3CCCCS(=O)(=O)[O-])ccc21 [Compound 12]", 679]
]}

Recorded values, source patent US6579718B1.
